System: HIV-1 L100I mutant strain
Test: Anti-HIV assay against L100I mutant strain in MT-4 cells
Type: cell-based
Conditions: Human immunodeficiency virus 1, MT4, read-out: EC50 L100I
The following compounds are shown together with reported pEC50 values.
// scale note: pEC50 = -log10(conc_M); give the bare number

State the recorded pEC50 for this entry: Cc1cnc(Nc2ccc(C#N)cc2)nc1C(C#N)c1ccc(C#N)cc1Br (stereo not shown)
6.29

State the recorded pEC50 for this entry: Cc1ccnc2c1NC(=O)c1cccnc1N2C1CC1 [Nevirapine, nevirapine, reference compound]
6.01

State the recorded pEC50 for this entry: Cc1cc(/C=C/C#N)cc(C)c1Nc1ccnc(Nc2ccc(C#N)cc2)n1 [Rilpivirine, rilpivirine, reference compound]
8.70
